target: Thyrotropin receptor (Homo sapiens); experiment: qHTS assay to identify small molecule agonists of the thyroid stimulating hormone receptor (TSHR) signaling pathway (AID 1224843); conditions: TSHR-HEK293 cells, cAMP HTRF, agonist mode, 30 min; series mostly up to 92.4 µM; further: on the % scale 0 is the no-effect control and ±100 the full control effect; nearly all actives have a fitted effect of over 45% in size
Results filed as inconclusive are left out. Active and inactive are the calls of the source. The call rests on the fitted dose curve.
Observable: activation

compound=CCCC(=O)OCCC(C)C observable=activation reported_measurement=inactive
compound=O=C1c2ccccc2C(=O)C1c1ccc2ccccc2n1 observable=activation reported_measurement=inactive
compound=CCn1nc(Cc2ccccc2)cc1C1CCN(C[C@H]2C[C@H](N(C)[C@@H](C(=O)O)C(C)C)C[C@@H]2c2cccc(F)c2)CC1 observable=activation reported_measurement=inactive
compound=COc1cc(CNC(=O)CCCC/C=C/C(C)C)ccc1O observable=activation reported_measurement=inactive
compound=CCCCOc1ccc(N)cc1 observable=activation reported_measurement=inactive
compound=O=C(O)c1ccncc1 observable=activation reported_measurement=inactive
compound=S=c1[nH][nH]c(=S)s1 observable=activation reported_measurement=inactive
compound="COc1ccnc2c1CCCCC2S(=O)c1nc2ccccc2[nH]1 (stereo unspecified)" observable=activation reported_measurement=inactive
compound="CC(C)(C)NCC(O)COc1ccc(NC(=O)NC2CCCCC2)cc1 (stereo unspecified)" observable=activation reported_measurement=inactive
compound="FC1(F)C(F)(F)C(F)(F)C2(F)C(F)(C1(F)F)C(F)(F)C(F)(F)C1(F)C(F)(F)C(F)(F)C(F)(F)C(F)(F)C12F (stereo unspecified)" observable=activation reported_measurement=inactive
compound=CCOc1ccc(NC(C)=O)cc1N observable=activation reported_measurement=inactive
compound="CCCCC(CC)COCCC#N (stereo unspecified)" observable=activation reported_measurement=inactive
compound="O=C1OC(=O)C2CC=CCC12 (stereo unspecified)" observable=activation reported_measurement=inactive
compound="CCC(C)C1N=C(C)C(C)S1 (stereo unspecified)" observable=activation reported_measurement=inactive
compound="O=C(OC1C[C@H]2CC[C@@H](C1)[N+]21CCCC1)C(O)(c1ccccc1)c1ccccc1 (stereo partly specified)" observable=activation reported_measurement=inactive
compound="CC(CC(C#N)(c1ccccc1)C(C)C)N(C)C (stereo unspecified)" observable=activation reported_measurement=inactive
compound=O=C(N[C@@H](Cc1ccccc1)[C@@H](O)C(=O)N1C[C@@H](O)[C@@H](O)C1)c1cc2cc(Cl)ccc2[nH]1 observable=activation reported_measurement=inactive
compound=NC(=O)c1ccccc1C(N)=O observable=activation reported_measurement=inactive
compound="CCOc1ccc2c(c1)C(C)CC(C)(C)N2 (stereo unspecified)" observable=activation reported_measurement=inactive
compound=O=C(c1ccco1)N1CCNCC1 observable=activation reported_measurement=inactive
compound=CCOc1cc(OCC)c(C(C)=O)cc1OCC observable=activation reported_measurement=inactive
compound=CO[C@@H]1COCC[C@@H]1N[C@@H]1CC[C@@](C(=O)N2CCc3ncc(C(F)(F)F)cc3C2)(C(C)C)C1 observable=activation reported_measurement=inactive
compound=COc1ccc(C(=O)c2ccc(C)cc2)c(O)c1 observable=activation reported_measurement=inactive
compound=Cc1nc(C)c(C)nc1C observable=activation reported_measurement=inactive
compound=CC(C)CC(C)(C)C observable=activation reported_measurement=inactive
compound=CC(C)Cc1nccs1 observable=activation reported_measurement=inactive
compound=CCOc1ccccc1O observable=activation reported_measurement=inactive
compound=CC1(C)CC(O)CC(C)(C)N1[O] observable=activation reported_measurement=inactive
compound=CCCCCCCCNC observable=activation reported_measurement=inactive
compound=CCCCCCCCOCCCN observable=activation reported_measurement=inactive
compound=O=C(Cl)c1ccc(F)c(Cl)c1 observable=activation reported_measurement=inactive
compound="CC(C)=CCCC(C)C=O (stereo unspecified)" observable=activation reported_measurement=inactive
compound=O=[N+]([O-])c1cccc(I)c1 observable=activation reported_measurement=inactive
compound=Nc1ccc(C(=O)Oc2ccccc2)c(O)c1 observable=activation reported_measurement=inactive
compound=COc1ccc(CN(CCN(C)C)c2ncccn2)cc1 observable=activation reported_measurement=inactive
compound=CC(=O)Nc1cccc(N)c1 observable=activation reported_measurement=inactive
compound=Sc1nc(S)nc(S)n1 observable=activation reported_measurement=inactive
compound="CC(COc1ccccc1)NC(C)C(O)c1ccc(O)cc1 (stereo unspecified)" observable=activation reported_measurement=inactive
compound=CC1(C)[C@@H]2CC[C@]3(C2)[C@@H]1C(=O)CCC3(C)C observable=activation reported_measurement=inactive
compound=CC(C)=CCC[C@H](C)CCO observable=activation reported_measurement=inactive
compound=CCCCCCCCCCCCCCCCCCCl observable=activation reported_measurement="-0.25% [at 8.39 µM] (inactive)"
compound=O=C(O)c1ccccc1-n1cc(C(=O)O)c(=O)c2cc(Nc3c(F)cc(F)cc3Cl)c(Cl)cc21 observable=activation reported_measurement=inactive
compound=O=c1[nH][nH]c2ccccc12 observable=activation reported_measurement=inactive
compound="CCCCCCCCCC(C)C=O (stereo unspecified)" observable=activation reported_measurement=inactive
compound=OCCCO observable=activation reported_measurement=inactive
compound=CC(C)(C)c1cc(C=O)cc(C(C)(C)C)c1O observable=activation reported_measurement=inactive
compound="CC(CCl)OC(C)CCl (stereo unspecified)" observable=activation reported_measurement=inactive
compound=C=C[Si](OCC)(OCC)OCC observable=activation reported_measurement=inactive
compound=COC(=O)c1cc(Cl)ccc1[N+](=O)[O-] observable=activation reported_measurement=inactive
compound="C[C@H](N)C(=O)N[C@@H](C)C(=O)NC1[C@H]2CN(c3nc4c(cc3F)c(=O)c(C(=O)O)cn4-c3ccc(F)cc3F)C[C@@H]12 (stereo partly specified)" observable=activation reported_measurement=inactive
compound=O=C1C=CCCC1 observable=activation reported_measurement=inactive
compound=CC1(C)C(=O)NC(=O)N1CO observable=activation reported_measurement=inactive
compound=FC(F)(Cl)C(F)(Cl)Cl observable=activation reported_measurement=inactive
compound=CCCCOC(=O)CC#N observable=activation reported_measurement=inactive
compound="CC1(COc2ccc(CC3SC(=O)NC3=O)cc2)CCCCC1 (stereo unspecified)" observable=activation reported_measurement=inactive
compound=CC(C)Oc1ccccc1O observable=activation reported_measurement=inactive

The reported measurements were obtained from PubChem BioAssay (Tox21).
